tested.on: Beta-1,3-glucan synthase (Candida albicans)
Sequence (O13383 whole entry): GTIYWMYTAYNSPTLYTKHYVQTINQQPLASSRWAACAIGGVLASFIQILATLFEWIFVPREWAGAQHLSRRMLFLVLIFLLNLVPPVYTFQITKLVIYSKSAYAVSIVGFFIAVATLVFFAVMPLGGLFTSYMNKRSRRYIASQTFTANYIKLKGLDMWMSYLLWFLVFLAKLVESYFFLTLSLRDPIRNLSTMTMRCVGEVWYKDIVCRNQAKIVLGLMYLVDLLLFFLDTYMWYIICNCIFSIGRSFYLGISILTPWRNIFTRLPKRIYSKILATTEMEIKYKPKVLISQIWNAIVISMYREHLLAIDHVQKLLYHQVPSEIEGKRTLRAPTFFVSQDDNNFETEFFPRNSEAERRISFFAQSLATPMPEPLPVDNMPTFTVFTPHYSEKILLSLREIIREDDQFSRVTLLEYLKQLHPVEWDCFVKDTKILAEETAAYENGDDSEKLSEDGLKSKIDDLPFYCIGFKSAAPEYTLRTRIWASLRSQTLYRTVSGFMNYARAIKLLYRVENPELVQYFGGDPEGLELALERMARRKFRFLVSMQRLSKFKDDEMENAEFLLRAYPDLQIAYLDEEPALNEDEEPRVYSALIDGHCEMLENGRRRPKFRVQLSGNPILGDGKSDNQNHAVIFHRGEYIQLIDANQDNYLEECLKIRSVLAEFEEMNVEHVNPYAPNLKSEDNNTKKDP
experiment.summary: Inhibition of glucan synthase in Candida albicans BWP17 membrane
Format: cell membranes
pIC50: −log10 of the molar value.

>  <molecule>
N=C/C(=C(/OC1CCCC1)C(=O)Nc1cccc(Cl)c1)N1CCN(S(N)(=O)=O)CC1

>  <pIC50>
4.38

$$$$
>  <molecule>
CC(NS(=O)(=O)N1CCN(/C(C=N)=C(\OCC2(C)CC2)C(=O)Nc2cccc(Cl)c2)CC1)c1cccc(N)c1 (centres undefined)

>  <pIC50>
6.28

$$$$
>  <molecule>
COC(=O)c1ccc(CNS(=O)(=O)N2CCN(/C(C=N)=C(\OCC3(C)CC3)C(=O)Nc3cccc(Cl)c3)CC2)cc1

>  <pIC50>
6.28

$$$$
>  <molecule>
N=C/C(=C(/OC1CCCC1)C(=O)Nc1cccc(Cl)c1)N1CCN(S(=O)(=O)N2CCOCC2)CC1

>  <pIC50>
5.54

$$$$
>  <molecule>
COc1cc(CNS(=O)(=O)N2CCN(/C(C=N)=C(\OCC3(C)CC3)C(=O)Nc3cccc(Cl)c3)CC2)ccc1N

>  <pIC50>
6.80

$$$$
>  <molecule>
CC1(CO/C(C(=O)Nc2cccc(Cl)c2)=C(/C=N)N2CCN(S(=O)(=O)NCc3ccnc(N)c3)CC2)CC1

>  <pIC50>
6.39

$$$$
>  <molecule>
CC1(CO/C(C(=O)Nc2cccc(Cl)c2)=C(/C=N)N2CCN(S(=O)(=O)NCc3ccccc3)CC2)CC1

>  <pIC50>
5.27

$$$$
>  <molecule>
CC1(CO/C(C(=O)Nc2cccc(Cl)c2)=C(/C=N)N2CCN(S(=O)(=O)NCc3nc4ccccc4s3)CC2)CC1

>  <pIC50>
6.40

$$$$
>  <molecule>
CC(C)N(C)S(=O)(=O)N1CCN(/C(C=N)=C(\OC2CCCC2)C(=O)Nc2cccc(Cl)c2)CC1

>  <pIC50>
5.84

$$$$
>  <molecule>
N=C/C(=C(/OC1CCCC1)C(=O)Nc1cccc(Cl)c1)N1CCN(S(=O)(=O)NCc2ccccc2)CC1

>  <pIC50>
7.06

$$$$
>  <molecule>
Cc1ccc(CNS(=O)(=O)N2CCN(/C(C=N)=C(\OCC3(C)CC3)C(=O)Nc3cccc(Cl)c3)CC2)cc1N

>  <pIC50>
6.90

$$$$
>  <molecule>
CN(C)S(=O)(=O)N1CCN(/C(C=N)=C(\OC2CCCC2)C(=O)Nc2cccc(Cl)c2)CC1

>  <pIC50>
5.72

$$$$
>  <molecule>
N=C/C(=C(/OC1CCCC1)C(=O)Nc1cccc(Cl)c1)N1CCN(S(=O)(=O)Nc2ccccc2)CC1

>  <pIC50>
6.93

$$$$
>  <molecule>
Cc1cc(CNS(=O)(=O)N2CCN(/C(C=N)=C(\OCC3(C)CC3)C(=O)Nc3cccc(Cl)c3)CC2)ccc1N

>  <pIC50>
6.97

$$$$
>  <molecule>
CC(C)NS(=O)(=O)N1CCN(/C(C=N)=C(\OC2CCCC2)C(=O)Nc2cccc(Cl)c2)CC1

>  <pIC50>
6.44

$$$$
>  <molecule>
CC1(CO/C(C(=O)Nc2cccc(Cl)c2)=C(/C=N)N2CCN(S(=O)(=O)NCc3ccncc3)CC2)CC1

>  <pIC50>
7.04

$$$$
>  <molecule>
Cc1nc2ccc(CNS(=O)(=O)N3CCN(/C(C=N)=C(\OCC4(C)CC4)C(=O)Nc4cccc(Cl)c4)CC3)cc2s1

>  <pIC50>
7.01

$$$$
>  <molecule>
CC1(CO/C(C(=O)Nc2cccc(Cl)c2)=C(/C=N)N2CCN(S(=O)(=O)NCc3ccc(F)c(N)c3)CC2)CC1

>  <pIC50>
6.53

$$$$
>  <molecule>
CCN(CC)S(=O)(=O)N1CCN(/C(C=N)=C(\OC2CCCC2)C(=O)Nc2cccc(Cl)c2)CC1

>  <pIC50>
6.20

$$$$
>  <molecule>
COc1ccc(CNS(=O)(=O)N2CCN(/C(C=N)=C(\OCC3(C)CC3)C(=O)Nc3cccc(Cl)c3)CC2)cc1N

>  <pIC50>
6.63

$$$$
>  <molecule>
CC1(CO/C(C(=O)Nc2cccc(Cl)c2)=C(/C=N)N2CCN(S(=O)(=O)NCc3ccc(N)c(F)c3)CC2)CC1

>  <pIC50>
6.96

$$$$
>  <molecule>
COc1ccc(CNS(=O)(=O)N2CCN(/C(C=N)=C(\OCC3(C)CC3)C(=O)Nc3cccc(Cl)c3)CC2)cc1OC

>  <pIC50>
6.53

$$$$
>  <molecule>
CC1(CO/C(C(=O)Nc2cccc(Cl)c2)=C(/C=N)N2CCN(S(=O)(=O)NCc3cccnc3)CC2)CC1

>  <pIC50>
6.70

$$$$
>  <molecule>
CC1(CO/C(C(=O)Nc2cccc(Cl)c2)=C(/C=N)N2CCN(S(=O)(=O)NCc3nc4cc(Cl)ccc4o3)CC2)CC1

>  <pIC50>
5.88

$$$$
